- Test summary: Pharmacokinetics of lutein and zeaxanthin with/without epi-lutein after intravenous administration
- Assay type: in vivo, wistar rats
- Assay context: rat, 4 mg/kg; wistar rats, intravenous; A 4 mg lutein/Kg, B 2 mg lutein+2 mg epi-lutein/Kg, C 4 mg zeaxanthin/Kg, D 2 mg zeaxanthin+2 mg epi-lutein/Kg; lutein (A,B) or zeaxanthin (C,D) in plasma; read-out: T½
Measurement label: half-life (h)
Just the number in h, nothing appended.

input: Which value of half-life has been reported for CC1=C[C@H](O)CC(C)(C)[C@H]1/C=C/C(C)=C/C=C/C(C)=C/C=C/C=C(C)/C=C/C=C(C)/C=C/C1=C(C)C[C@@H](O)CC1(C)C in the records?
output: 5.08

---

- Test summary: Epi-lutein study: plasma levels after oral administration (gavage) for 7 consecutive days
- Assay type: in vivo, Rats, Sprague-Dawley
- Assay context: Sprague-Dawley, rat, plasma, 0.282 mg/kg BW; Treatment I (0.282 mg lutein/kg BW, oral gavage), day 7, τ 24 hours; read-out: AUC0-τ
- Description: [table] Study Design: Oral administration (gavage) of Treatment I for 7 consecutive days in 5 rats followed by a 14 days wash-out period and oral administration (gavage) of Treatment II for 7 consecutive days Blood Sampling: On day 7 of treatment prior to treatment and 15 min, 1, 3, 6, 9, 12 and 24 hours after treatment. About 400 μL blood were be transferred to Vacutainer tubes containing EDTA. […]
Measurement label: AUC

input: Which value of AUC has been reported for CC1=C[C@H](O)CC(C)(C)[C@H]1/C=C/C(C)=C/C=C/C(C)=C/C=C/C=C(C)/C=C/C=C(C)/C=C/C1=C(C)C[C@@H](O)CC1(C)C in the records?
output: 18100 ng·h/mL

---

- Test summary: Epi-lutein study: plasma levels after oral administration (gavage) for 7 consecutive days
- Format: in vivo, Rats, Sprague-Dawley
- Assay context: Sprague-Dawley, rat, plasma; Treatment II (0.147 mg lutein + 0.135 mg epi-lutein/kg BW, oral gavage), day 7; read-out: AUC0-12 h
Measurement label: AUC(0-t) (ng·h/mL)
Just the number in ng·h/mL, nothing appended.

input: Which value of AUC(0-t) has been reported for CC1=C[C@H](O)CC(C)(C)[C@H]1/C=C/C(C)=C/C=C/C(C)=C/C=C/C=C(C)/C=C/C=C(C)/C=C/C1=C(C)C[C@@H](O)CC1(C)C [Lutein] in the records?
output: 9340
